# Target: Torsin-1A (Homo sapiens) (UniProt O14656)
# Sequence (O14656 whole entry, looked up): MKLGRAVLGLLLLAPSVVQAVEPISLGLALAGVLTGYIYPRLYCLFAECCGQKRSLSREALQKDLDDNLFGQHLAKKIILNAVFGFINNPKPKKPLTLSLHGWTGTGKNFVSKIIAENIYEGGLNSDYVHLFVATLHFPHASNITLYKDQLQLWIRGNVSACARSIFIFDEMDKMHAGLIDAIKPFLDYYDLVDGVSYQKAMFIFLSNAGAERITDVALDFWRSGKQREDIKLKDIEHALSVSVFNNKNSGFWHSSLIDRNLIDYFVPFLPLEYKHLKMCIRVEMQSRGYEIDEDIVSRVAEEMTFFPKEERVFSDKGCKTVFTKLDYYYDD
# Test Name: torsin A mutant lysate binding on microarrays – cell lysate, small-molecule microarray, COS7 lysate, 635/667 nm fluorescence, primary screen (AID 1150);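 further: score pools 667 nm emission and signal to noise measuring lysate protein binding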
# Run Conditions: COS7 hTOR1A mutant lysate, 635 nm fluorescence, higher = more signal
Please respond with reported composite z-score for every item in the list.
Give bare numbers.

Provide composite z-score values for the following items, in order.
1. C=C(COC)C(=O)CC[C@@H](OC(=O)c1ccccc1-c1ccccc1C(=O)O)c1ccc(CO)o1
2. [N-]=[N+]=NCc1ccccc1C[C@]1(C(N)=O)N=C(c2ccc(OCCCO)cc2)O[C@H]1c1ccccc1N=[N+]=[N-]
3. O=C1O[C@H](c2ccccc2)[C@H](c2ccccc2)N2[C@H]1[C@@H](C(=O)NC[C@H](O)c1ccccc1)[C@]1(C(=O)Nc3ccc(C#CC4(O)CCCCCC4)cc31)[C@H]2c1ccccc1OCCO

result:
1: 0.404; 2: 0.652; 3: 1.08

Provide composite z-score values for the following items, in order.
1. O=C1OCCC/C=C\[C@H]2OC34C=CCN(Cn5nnc6ccccc65)C(=O)[C@H]3N(CCCO)C(=O)[C@@H]4C12 (stereo partly drawn)
2. O=C1C[C@@](C(=O)O)(c2ccc([N+](=O)[O-])cc2)[C@@H](c2ccc(CO)cc2I)N1CC12CC3CC(CC(C3)C1)C2

result:
[1.14, 0.381]

Provide composite z-score values for the following items, in order.
1. CCOC1=C2C(c3ccc(C)cc3)N(S(=O)(=O)c3ccc(C)cc3)CC2n2c(=O)n(-c3ccccc3)c(=O)n2C1 (stereo not drawn)
2. CN(C)CCCC[C@@H]1NC(=O)[C@H]2C[C@@H](C(=O)NCCCCCNC(=O)CS)[C@@H](c3ccc(O)cc3)N2C1=O
3. [N-]=[N+]=NCc1ccccc1[C@@H]1OC(c2ccc(OCCCO)cc2)=N[C@]1(Cc1ccccc1)C(=O)O

result:
1. 0.254
2. 0.239
3. 0.786

* * *

Please respond with reported z-score for every item in the list.
# Target: NADPH oxidase 2 (Homo sapiens) (UniProt P04839)
# Sequence (P04839 whole entry, looked up): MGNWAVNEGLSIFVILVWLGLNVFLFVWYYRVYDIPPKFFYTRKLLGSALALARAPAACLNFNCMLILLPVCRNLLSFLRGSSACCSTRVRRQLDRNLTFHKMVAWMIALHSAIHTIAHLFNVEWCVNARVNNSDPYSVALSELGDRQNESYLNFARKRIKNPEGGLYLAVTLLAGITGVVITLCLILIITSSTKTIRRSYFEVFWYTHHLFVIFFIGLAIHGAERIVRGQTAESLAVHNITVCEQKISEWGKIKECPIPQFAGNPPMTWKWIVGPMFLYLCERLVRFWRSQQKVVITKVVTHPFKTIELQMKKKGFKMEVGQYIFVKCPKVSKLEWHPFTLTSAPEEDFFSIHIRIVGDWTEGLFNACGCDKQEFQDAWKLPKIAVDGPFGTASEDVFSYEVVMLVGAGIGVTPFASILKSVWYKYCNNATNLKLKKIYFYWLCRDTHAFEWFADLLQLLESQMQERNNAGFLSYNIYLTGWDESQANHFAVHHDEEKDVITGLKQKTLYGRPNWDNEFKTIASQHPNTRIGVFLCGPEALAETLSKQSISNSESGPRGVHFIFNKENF
# Test Name: compounds shifting NOX2 Amplex Red fluorescence – cell-based, HEK293-NOX2, PMA-stimulated, NOX inhibitor project, primary screen (AID 1159); further: test concentration not given here
# Run Conditions: 45 min, higher = more signal, called active from +8 up or from −8 down
The source made the active and inactive calls.

CN1C(=O)C2C=CC(C(O)C(c3ccccc3)c3ccccc3)N(Nc3ccccc3)C2C1=O (stereo not drawn) : -1.39 (inactive)
COC(=O)c1nc2oc1CC[C@@H](CO)NC(=O)N(C)Cc1cn(nn1)C[C@H](Cc1ccccc1)NC2=O : -0.454 (inactive)

Let us move to another entry and its z-score.
query: So what's the measured z-score for this one? `O=C(N1CCCCC1)[C@]1(CCS(=O)(=O)c2ccccc2)N=C(c2ccc(OCCCO)cc2)O[C@@H]1c1ccccc1`
result: -2.96 (inactive)

* * *

Please respond with reported z-score for every item in the list.
# Test Name: blockers of DNA damage checkpoint Chk1 activation – imaging, HeLa, hydroxyurea, phospho-Chk1 nuclear intensity, primary screen (AID 1187); further: test concentration not given here
# Run Conditions: hydroxyurea-induced phospho-Chk1 immunofluorescence imaging, higher = more signal
Give bare numbers.

C=CCCN(CC#C[C@H]1Oc2ccccc2S(=O)(=O)N2CCC[C@@H]12)S(=O)(=O)c1ccc(C)cc1 : 0.431

Provide z-score values for the following items, in order.
1. COc1ccc(CCNC(=O)[C@@]2(C)c3ccccc3C(=O)N(Cc3ccccc3)[C@H]2c2ccc(CO)cc2)cc1
2. CC(C)C(O)C1C=CC2C(=O)N(C)C(=O)C2N1N1CCCCC1 (stereo not drawn)

result:
1. -0.173
2. 0.171

* * *

# Target: Fibroblast growth factor 10 (Homo sapiens) (UniProt O15520)
# Sequence (O15520 whole entry, looked up): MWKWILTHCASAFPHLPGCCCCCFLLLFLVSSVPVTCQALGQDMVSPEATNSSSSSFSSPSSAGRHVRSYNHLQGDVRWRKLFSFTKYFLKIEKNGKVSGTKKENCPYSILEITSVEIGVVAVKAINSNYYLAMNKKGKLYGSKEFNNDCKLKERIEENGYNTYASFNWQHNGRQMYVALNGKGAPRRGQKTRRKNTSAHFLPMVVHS
# Test Name: compounds binding fibroblast growth factor 10 – biochemical, small-molecule microarray, 635 nm fluorescence, primary screen (AID 1102)
# Run Conditions: FGF10 binding, fluorescence 635 nm, higher = more signal
Please respond with reported composite z-score for every item in the list.
Numbers only.

Provide composite z-score values for the following items, in order.
1. O=C(NCC(F)(F)F)[C@@H]1c2ccccc2C(=O)N(Cc2ccccc2)[C@H]1c1ccc(CO)cc1
2. NC(=O)NCC#Cc1ccc2c(c1)[C@]1(C(=O)N2)[C@H](c2ccc(O)cc2)N2[C@H](c3ccccc3)[C@H](c3ccccc3)OC(=O)[C@H]2[C@@H]1C(=O)N1CCN(c2ncccn2)CC1
3. COc1ccc([Si](C)(C)[C@H]2[C@H](CC(=O)N(CCO)Cc3ccccc3)O[C@@]3(C(=O)N(Cc4cccc(N5C(=O)c6cccc7cccc5c67)c4)c4ccccc43)[C@@H]2C)cc1
4. Cc1ccc(S[C@]2(C(=O)NCCCN(C)C)CC(=O)N(Cc3ccccc3)[C@@H]2c2ccc(CO)cc2)cc1
5. CN(C)CCCCCCNC(=O)[C@@H]1C[C@@H]2C(=O)N[C@@H](Cc3ccccc3)C(=O)N2[C@@H]1c1cccc(OCCO)c1
6. [N-]=[N+]=NCc1ccccc1C[C@]1(C(=O)NCCN2CCOCC2)N=C(c2ccc(OCCCO)cc2)O[C@H]1c1ccccc1CN=[N+]=[N-]

result:
[-0.308, 0.602, 0.158, -1.01, 0.393, 1.48]

Provide composite z-score values for the following items, in order.
1. COCCOC(=O)N1C(=O)[C@@]2(c3cc(C#CC4=CCCCC4)ccc31)[C@H](c1ccc(OCCO)cc1)N1[C@H](c3ccccc3)[C@H](c3ccccc3)OC(=O)[C@H]1[C@@H]2C(=O)Nc1nc2ccccc2s1
2. CCCC[C@@H]1C[C@H]1[C@@H](NC(=O)c1ccco1)c1ccccc1
3. C=C(COC)/C(=C/C[C@H](OC(C)=O)c1ccccc1OCCO)c1cnc2ccccc2c1

result:
[1.08, -1.01, 1.16]

* * *

# System: Lefty1
# Test Name: Lefty1 protein binding to printed compounds – biochemical, small-molecule microarray, 635/667 nm fluorescence, primary screen (AID 1139)
# Run Conditions: fluorescence 635/667, higher = more signal
Label rule, in plain words: composite z-score of 0.4 and up is yes, under 0.4 is no.

Field: example entries. Status: answers known.
C=CCN1C(=O)[C@]2(Cc3ccccc31)N=C(c1ccc(OCCCO)cc1)O[C@@H]2c1ccccc1 : no
C=C[C@H](C)[C@H](O)c1ccc(OCCO)cc1 : no
COCCOC(=O)N1C(=O)[C@@]2(c3cc(C#Cc4ccc(OC)cc4)ccc31)[C@H](C(N)=O)[C@H]1C(=O)O[C@H](c3ccccc3)[C@H](c3ccccc3)N1[C@@H]2c1ccc(O)cc1 : no
CC(C)(C)OC(=O)CC[C@@]1(C(=O)NCC(O)CO)N=C(c2ccc(OCCCO)cc2)O[C@@H]1c1ccccc1 (stereo not given in full) : no

Next compound, please.
query: Has CCOC1=C2C(c3ccc(C)cc3)N(S(=O)(=O)c3ccc(C)cc3)CC2n2c(=O)n(-c3ccccc3)c(=O)n2C1 (stereo not given) a recorded composite z-score greater than or equal to 0.4?
result: yes

* * *

# Test Name: JC-1 mitochondrial signal, unstimulated myeloma cells – cell-based, JC-1 fluorescence, RPMI8226, 24 h, 100 nL compound, profiling panel (AID 1169); further: test concentration not given here
# Run Conditions: JC-1 mitochondrial potential fluorescence, higher = more signal
Label rule, in plain words: z-score of -0.08 and up is class 1, under -0.08 is class 0.

[N-]=[N+]=NCc1ccccc1C[C@]1(C(=O)NCCN2CCOCC2)N=C(c2ccc(OCCCO)cc2)O[C@H]1c1ccccc1CN=[N+]=[N-] : class 0
CC1CC/C=C\[C@H]2OC34C=CCN(c5ccc6ccccc6c5)C(=O)[C@H]3N(CCCCCO)C(=O)[C@@H]4C2C(=O)O1 (stereo partly drawn) : class 1
CN(C)CCCN1C(=O)[C@@]2(c3ccc([N+](=O)[O-])cc3)CC(=O)N(C3CCCCC3)[C@@H]2c2ccc(CO)cc21 : class 1
C=CC[C@@]1(C(=O)NCCN2CCOCC2)N=C(c2ccc(OCCCO)cc2)O[C@@H]1c1ccccc1CN=[N+]=[N-] : class 0
C=CCN1C(=O)[C@@]2(O[C@@H](CCO)[C@H]([Si](C)(C)c3ccc(OC)cc3)[C@H]2C)c2cc(N3C(=O)COc4ccccc43)ccc21 : class 0
O=C1OCCC/C=C\[C@H]2OC34C=CCN(Cn5nnc6ccccc65)C(=O)[C@H]3N(CCCO)C(=O)[C@@H]4C12 (stereo partly drawn) : class 1
CN1C(=O)C2C=CC(C(O)C3=C[C@H]4C[C@@H](C3)C4(C)C)N(Nc3ccc([N+](=O)[O-])cc3[N+](=O)[O-])C2C1=O (stereo partly drawn) : class 0
[N-]=[N+]=NCc1ccccc1[C@@H]1OC(c2ccc(OCCCO)cc2)=N[C@]1(Cc1ccccc1N=[N+]=[N-])C(N)=O : class 0

query: Has CCN(CC)c1ccc(N2CC=CC34O[C@@H]5C=CCOC(=O)[C@@H]5[C@H]3C(=O)N(CCCCCO)[C@@H]4C2=O)cc1 (stereo partly drawn) a recorded z-score greater than or equal to -0.08?
result: class 1

query: Has CN1C(=O)C2C=CC(C(O)c3ccc(Br)cc3)N(Nc3ccccc3)C2C1=O (stereo not drawn) a recorded z-score greater than or equal to -0.08?
result: class 1

query: Has CCCCN1CC=CC23O[C@@H]4/C=C\CCCOC(=O)C4[C@H]2C(=O)N(C(C)CO)[C@@H]3C1=O (stereo partly drawn) a recorded z-score greater than or equal to -0.08?
result: class 0

query: Has `[N-]=[N+]=NCc1ccccc1C[C@]1(C(=O)N2CCOCC2)N=C(c2ccc(OCCCO)cc2)O[C@H]1c1ccccc1` a recorded z-score greater than or equal to -0.08?
result: class 0
